These entries and their values trace back to ChEMBL document CHEMBL3885861.

Organism: Rattus norvegicus
run description: Open TG-GATES - Regimen: Single
Type: toxicity, organism-based, Sprague-Dawley
Set-up: regimen Single, gender Male, age 6 weeks
test context: in vivo, po, 300 mg/kg, 9 h, tissue Plasma, route gavage, dose level Middle

smiles entry	TP / g/dL
O=C(OC[C@H]1O[C@@H](OC(=O)c2cc(O)c(O)c(OC(=O)c3cc(O)c(O)c(O)c3)c2)[C@H](OC(=O)c2cc(O)c(O)c(OC(=O)c3cc(O)c(O)c(O)c3)c2)[C@@H](OC(=O)c2cc(O)c(O)c(OC(=O)c3cc(O)c(O)c(O)c3)c2)[C@@H]1OC(=O)c1cc(O)c(O)c(OC(=O)c2cc(O)c(O)c(O)c2)c1)c1cc(O)c(O)c(OC(=O)c2cc(O)c(O)c(O)c2)c1	5.4
CN/C(=N/CCSCc1nc[nH]c1C)NC#N	5.5
Cc1nnc2n1-c1ccc(Cl)cc1C(c1ccccc1Cl)=NC2	5.1
COC(=O)C1=C(C)NC(C)=C(C(=O)OC)C1c1ccccc1[N+](=O)[O-]	5.4
CNC(=C[N+](=O)[O-])NCCSCc1ccc(CN(C)C)o1	5.6

---

Each record here notes measured LIVER.
Species on record: Rattus norvegicus
run description: Open TG-GATES - Regimen: Single
Type: toxicity, organism-based, Sprague-Dawley
Parameters: regimen Single, gender Male, age 6 weeks
test context: in vivo, po, 300 mg/kg, 24 h, tissue Liver, route gavage, dose level Middle

smiles entry	LIVER / g
CNC(=C[N+](=O)[O-])NCCSCc1ccc(CN(C)C)o1	11.2
O=C(OC[C@H]1O[C@@H](OC(=O)c2cc(O)c(O)c(OC(=O)c3cc(O)c(O)c(O)c3)c2)[C@H](OC(=O)c2cc(O)c(O)c(OC(=O)c3cc(O)c(O)c(O)c3)c2)[C@@H](OC(=O)c2cc(O)c(O)c(OC(=O)c3cc(O)c(O)c(O)c3)c2)[C@@H]1OC(=O)c1cc(O)c(O)c(OC(=O)c2cc(O)c(O)c(O)c2)c1)c1cc(O)c(O)c(OC(=O)c2cc(O)c(O)c(O)c2)c1	10.2
Cc1nnc2n1-c1ccc(Cl)cc1C(c1ccccc1Cl)=NC2	9.2
CN/C(=N/CCSCc1nc[nH]c1C)NC#N	10.7
COC(=O)C1=C(C)NC(C)=C(C(=O)OC)C1c1ccccc1[N+](=O)[O-]	7.8

---

Each record here notes measured LIVER.
Organism: Rattus norvegicus
run description: Open TG-GATES - Regimen: Daily Repeat
Assay type: toxicity, organism-based, Sprague-Dawley
Design: regimen Daily Repeat, gender Male, age 6 weeks
test context: in vivo, po, 100 mg/kg, […], tissue Liver, route gavage, dose level Low, time 7 day
property: LIVER (g)

smiles entry	measure unit	quantitative readout
O=C(OC[C@H]1O[C@@H](OC(=O)c2cc(O)c(O)c(OC(=O)c3cc(O)c(O)c(O)c3)c2)[C@H](OC(=O)c2cc(O)c(O)c(OC(=O)c3cc(O)c(O)c(O)c3)c2)[C@@H](OC(=O)c2cc(O)c(O)c(OC(=O)c3cc(O)c(O)c(O)c3)c2)[C@@H]1OC(=O)c1cc(O)c(O)c(OC(=O)c2cc(O)c(O)c(O)c2)c1)c1cc(O)c(O)c(OC(=O)c2cc(O)c(O)c(O)c2)c1	g	12.2
CCOc1ccc(NC(C)=O)cc1	g	12.8
COC(=O)C1=C(C)NC(C)=C(C(=O)OC)C1c1ccccc1[N+](=O)[O-]	g	13.2
CNC(=C[N+](=O)[O-])NCCSCc1ccc(CN(C)C)o1	g	12.5
CN/C(=N/CCSCc1nc[nH]c1C)NC#N	g	13
Cc1nnc2n1-c1ccc(Cl)cc1C(c1ccccc1Cl)=NC2	g	11.9

---

Each record here notes measured Plat.
Organism: Rattus norvegicus
run description: Open TG-GATES - Regimen: Single
Assay type: toxicity, organism-based, Sprague-Dawley
Parameters: regimen Single, gender Male, age 6 weeks
test context: in vivo, po, 0 mg/kg, 9 h, tissue Blood, route gavage, dose level Control
property: Plat (x10_4/uL)

compound	property	quantitative readout
Cc1nnc2n1-c1ccc(Cl)cc1C(c1ccccc1Cl)=NC2	Plat	112
Nc1c2c(nc3ccccc13)CCCC2	Plat	120
NC1=NC(=O)C(c2ccccc2)O1 (stereo not drawn)	Plat	127.3
CCCc1cc(=O)[nH]c(=S)[nH]1	Plat	107.3
CN(C)CCC(c1ccc(Cl)cc1)c1ccccn1 (stereo not drawn)	Plat	107.8
COC(=O)C1=C(C)NC(C)=C(C(=O)OC)C1c1ccccc1[N+](=O)[O-]	Plat	120.3
CN/C(=N/CCSCc1nc[nH]c1C)NC#N	Plat	128
CC(C)NNC(=O)c1ccncc1	Plat	110.7
Brc1ccccc1	Plat	120.5
CNC(=C[N+](=O)[O-])NCCSCc1ccc(CN(C)C)o1	Plat	120.9
O=C(OC[C@H]1O[C@@H](OC(=O)c2cc(O)c(O)c(OC(=O)c3cc(O)c(O)c(O)c3)c2)[C@H](OC(=O)c2cc(O)c(O)c(OC(=O)c3cc(O)c(O)c(O)c3)c2)[C@@H](OC(=O)c2cc(O)c(O)c(OC(=O)c3cc(O)c(O)c(O)c3)c2)[C@@H]1OC(=O)c1cc(O)c(O)c(OC(=O)c2cc(O)c(O)c(O)c2)c1)c1cc(O)c(O)c(OC(=O)c2cc(O)c(O)c(O)c2)c1	Plat	123.3
CCOc1ccc(NC(C)=O)cc1	Plat	116.6
CN1C(=O)CCS(=O)(=O)C1c1ccc(Cl)cc1 (stereo not drawn)	Plat	116.8

---

Species: Rattus norvegicus
run description: Open TG-GATES - Regimen: Daily Repeat
Assay type: toxicity, organism-based, Sprague-Dawley
Parameters: regimen Daily Repeat, gender Male, age 6 weeks
test context: in vivo, po, 1000 mg/kg, […], tissue Plasma, route gavage, dose level High, time 7 day

smiles entry	IP (mg/dL)
COC(=O)C1=C(C)NC(C)=C(C(=O)OC)C1c1ccccc1[N+](=O)[O-]	6.4
O=C(OC[C@H]1O[C@@H](OC(=O)c2cc(O)c(O)c(OC(=O)c3cc(O)c(O)c(O)c3)c2)[C@H](OC(=O)c2cc(O)c(O)c(OC(=O)c3cc(O)c(O)c(O)c3)c2)[C@@H](OC(=O)c2cc(O)c(O)c(OC(=O)c3cc(O)c(O)c(O)c3)c2)[C@@H]1OC(=O)c1cc(O)c(O)c(OC(=O)c2cc(O)c(O)c(O)c2)c1)c1cc(O)c(O)c(OC(=O)c2cc(O)c(O)c(O)c2)c1	8
CCOc1ccc(NC(C)=O)cc1	5.9
Cc1nnc2n1-c1ccc(Cl)cc1C(c1ccccc1Cl)=NC2	7.4
CNC(=C[N+](=O)[O-])NCCSCc1ccc(CN(C)C)o1	7.8
CN/C(=N/CCSCc1nc[nH]c1C)NC#N	7.9

---

Species: Rattus norvegicus
run description: Open TG-GATES - Regimen: Single
Format: toxicity, organism-based, Sprague-Dawley
Set-up: regimen Single, gender Male, age 6 weeks
test context: in vivo, po, 300 mg/kg, 3 h, tissue Plasma, route gavage, dose level Middle
property: ALT (IU/L)

smiles entry	measure unit	quantitative readout
CN/C(=N/CCSCc1nc[nH]c1C)NC#N	IU/L	37.4
Cc1nnc2n1-c1ccc(Cl)cc1C(c1ccccc1Cl)=NC2	IU/L	40.2
O=C(OC[C@H]1O[C@@H](OC(=O)c2cc(O)c(O)c(OC(=O)c3cc(O)c(O)c(O)c3)c2)[C@H](OC(=O)c2cc(O)c(O)c(OC(=O)c3cc(O)c(O)c(O)c3)c2)[C@@H](OC(=O)c2cc(O)c(O)c(OC(=O)c3cc(O)c(O)c(O)c3)c2)[C@@H]1OC(=O)c1cc(O)c(O)c(OC(=O)c2cc(O)c(O)c(O)c2)c1)c1cc(O)c(O)c(OC(=O)c2cc(O)c(O)c(O)c2)c1	IU/L	37.6
COC(=O)C1=C(C)NC(C)=C(C(=O)OC)C1c1ccccc1[N+](=O)[O-]	IU/L	46.2
CNC(=C[N+](=O)[O-])NCCSCc1ccc(CN(C)C)o1	IU/L	34.4

---

Each record here notes measured Eos.
Organism: Rattus norvegicus
run description: Open TG-GATES - Regimen: Daily Repeat
Format: toxicity, organism-based, Sprague-Dawley
Set-up: regimen Daily Repeat, gender Male, age 6 weeks
test context: in vivo, po, 0 mg/kg, […], tissue Blood, route gavage, dose level Control, time 7 day
property: Eos (%)

> print(dat)
                                   molecule  quantitative.readout
1  NC1=NC(=O)C(c2ccccc2)O1 (stereo not given)                     1
2                   Nc1c2c(nc3ccccc13)CCCC2                     1
3              CN/C(=N/CCSCc1nc[nH]c1C)NC#N                   0.6
4                 CCCc1cc(=O)[nH]c(=S)[nH]1                   0.8
5  CN1C(=O)CCS(=O)(=O)C1c1ccc(Cl)cc1 (stereo not given)                   0.8
